Tested on: A549
Assay: Cytotoxicity against human A549 cells after 72 hrs by MTT assay
Assay type: functional, cell-based
Conditions: Homo sapiens, A549, 72 h; read-out: IC50
MEASURED PROPERTY: pIC50
Numbers only, as −log10 of the molar value.

What value of pIC50 has been recorded for this entry: CC1=CCC[C@@H]2[C@@](C)(CC/C(C=O)=C\C(=O)O)[C@H](C)CC[C@@]12C
5.51

Source of measurements: ChEMBL document CHEMBL1154791
